- Tested on: Candida albicans
- experimental details: Inhibition of Candida albicans AHAS catalytic subunit at 10 uM using pyruvate as substrate measured after 30 mins by colorimetric method relative to control
measured attribute: inhibition (%)
One number for each entry, in %.

COc1nc(OC)nc(Sc2ccc(C#N)cc2Br)n1: 32.1

Hey, can you go through the list below and give me inhibition for every item?
1. COc1nc(OC)nc(Sc2ccc(F)cc2C(=O)O)n1
2. COc1nc(OC)nc(Sc2cccc(F)c2C#N)n1
3. COc1cc(OC)nc(Sc2ccc(C(F)(F)F)cc2C#N)n1
4. COc1cc(OC)nc(Sc2ccc(C#N)c(C(F)(F)F)c2)n1

Response:
56.1
46.3
3.6
18.6
